Entries annotated with measured shrunken log2 fold change
Test system: Escherichia coli TOP10
test.method.notes: shrunken log2 fold change of peptide-encoding DNA abundance (4.5 h post-induction vs induction); higher = less antimicrobial activity (less host growth inhibition)
run.parameters: time post-induction: 4.5 h; library: site-saturation at positions 5, 18, 19, 20
Give the figure only, with no unit attached.

Please review the entries below; each comes with its answer.
| primary.sequence | number |
| --- | --- |
| RRIRFRPPRLPRPRPRPKSEPRP | -0.213 |
| RRIRHRPPRLPRPRPRPRLAPRP | 0.206 |
| RRIRWRPPRLPRPRPRPIFCPRP | 0.067 |

Now for another entry.
What does the data say about its shrunken log2 fold change? Entry: RRIRTRPPRLPRPRPRPECCPRP
0.348

---

Tested on: Escherichia coli TOP10
test.method.notes: shrunken log2 fold change of peptide-encoding DNA abundance (4.5 h post-induction vs induction); higher = less antimicrobial activity (less host growth inhibition)
run.parameters: time post-induction: 4.5 h; library: site-saturation at positions 5, 18, 19, 20
Threshold rule: shrunken log2 fold change greater than or equal to -0.02 is TRUE; below that, FALSE.

| primary.sequence | assigned.class |
| --- | --- |
| RRIRMRPPRLPRPRPRPACEPRP | TRUE |
| RRIRQRPPRLPRPRPRPCSGPRP | FALSE |
| RRIRIRPPRLPRPRPRPGHSPRP | TRUE |

Is shrunken log2 fold change for RRIRARPPRLPRPRPRPVADPRP at or above -0.02?
TRUE

// repeat for RRIRVRPPRLPRPRPRPCFVPRP and report
FALSE

// repeat for RRIRIRPPRLPRPRPRPRMSPRP and report
FALSE

---

Test system: Escherichia coli TOP10
test.method.notes: shrunken log2 fold change of peptide-encoding DNA abundance (4.5 h post-induction vs induction); higher = less antimicrobial activity (less host growth inhibition)
run.parameters: time post-induction: 4.5 h; library: site-saturation at positions 5, 18, 19, 20
Threshold rule: shrunken log2 fold change greater than or equal to 0.02 is criterion met; below that, criterion not met.

Worked cases, answers included:
| primary.sequence | assigned.class |
| --- | --- |
| RRIRSRPPRLPRPRPRPVWRPRP | criterion met |
| RRIRPRPPRLPRPRPRPMQIPRP | criterion met |
| RRIRLRPPRLPRPRPRPNCSPRP | criterion met |
| RRIRERPPRLPRPRPRPHQTPRP | criterion not met |
| RRIRVRPPRLPRPRPRPTPHPRP | criterion met |

Is shrunken log2 fold change for RRIRARPPRLPRPRPRPTRLPRP at or above 0.02?
criterion met

// repeat for RRIRERPPRLPRPRPRPPGFPRP and report
criterion met

// repeat for RRIRWRPPRLPRPRPRPKADPRP and report
criterion met

// repeat for RRIRNRPPRLPRPRPRPWGQPRP and report
criterion not met

// repeat for RRIRMRPPRLPRPRPRPYMLPRP and report
criterion not met

---

Tested on: Escherichia coli TOP10;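 also: peptides expressed intracellularly from a pBAD plasmid library in pooled LB shake-flask culture, induced with 0.3% L-arabinose, DNA abundance read by NGS, three biological replicates, DESeq2 with apeglm shrinkage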
test.method.notes: shrunken log2 fold change of peptide-encoding DNA abundance (4.5 h post-induction vs induction); higher = less antimicrobial activity (less host growth inhibition)
run.parameters: time post-induction: 4.5 h; library: site-saturation at positions 5, 18, 19, 20
Threshold rule: shrunken log2 fold change greater than or equal to 0.2 is T; below that, F.

Worked cases, answers included:
| primary.sequence | assigned.class |
| --- | --- |
| RRIRVRPPRLPRPRPRPGSPPRP | F |
| RRIRMRPPRLPRPRPRPACGPRP | T |
| RRIRMRPPRLPRPRPRPSSCPRP | F |
| RRIRMRPPRLPRPRPRPIYLPRP | F |
| RRIRGRPPRLPRPRPRPHNQPRP | F |

Is shrunken log2 fold change for RRIRFRPPRLPRPRPRPYCVPRP at or above 0.2?
F

// repeat for RRIRIRPPRLPRPRPRPEWLPRP and report
F
